Molecular target: JAK3 (Homo sapiens)
Sequence (P52333 whole entry): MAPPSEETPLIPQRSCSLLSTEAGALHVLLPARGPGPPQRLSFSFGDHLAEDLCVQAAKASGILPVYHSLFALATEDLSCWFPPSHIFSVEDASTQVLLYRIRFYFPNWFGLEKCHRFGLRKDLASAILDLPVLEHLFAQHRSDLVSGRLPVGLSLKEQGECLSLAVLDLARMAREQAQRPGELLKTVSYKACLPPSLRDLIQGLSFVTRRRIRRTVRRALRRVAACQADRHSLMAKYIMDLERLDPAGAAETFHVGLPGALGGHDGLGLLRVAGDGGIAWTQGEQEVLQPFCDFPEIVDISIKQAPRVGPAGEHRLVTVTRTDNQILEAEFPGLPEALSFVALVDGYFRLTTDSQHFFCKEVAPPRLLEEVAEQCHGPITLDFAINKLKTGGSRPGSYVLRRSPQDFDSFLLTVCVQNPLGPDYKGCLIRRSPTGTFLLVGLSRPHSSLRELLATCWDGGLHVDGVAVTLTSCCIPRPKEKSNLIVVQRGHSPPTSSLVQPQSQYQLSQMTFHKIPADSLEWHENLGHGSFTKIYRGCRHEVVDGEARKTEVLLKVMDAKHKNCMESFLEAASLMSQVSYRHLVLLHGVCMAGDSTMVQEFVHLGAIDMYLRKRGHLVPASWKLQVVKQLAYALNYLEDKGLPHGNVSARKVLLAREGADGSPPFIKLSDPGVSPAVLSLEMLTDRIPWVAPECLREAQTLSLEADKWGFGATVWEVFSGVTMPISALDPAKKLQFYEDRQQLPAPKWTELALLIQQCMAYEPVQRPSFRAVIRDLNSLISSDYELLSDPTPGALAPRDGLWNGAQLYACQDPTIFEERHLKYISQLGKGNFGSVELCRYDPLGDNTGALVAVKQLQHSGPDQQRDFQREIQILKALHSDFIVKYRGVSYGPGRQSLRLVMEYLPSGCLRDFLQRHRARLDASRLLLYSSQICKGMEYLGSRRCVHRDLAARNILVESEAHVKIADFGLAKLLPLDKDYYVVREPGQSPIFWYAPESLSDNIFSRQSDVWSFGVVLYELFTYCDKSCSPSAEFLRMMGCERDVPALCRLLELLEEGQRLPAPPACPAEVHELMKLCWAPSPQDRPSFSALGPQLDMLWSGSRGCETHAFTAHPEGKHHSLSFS
Assay: JAK3 inhibition assay (33P incorporation into poly(Glu)4Tyr)
Type: biochemical
Conditions: Table 6; enzyme inhibition data (Ki)
Experimental: Compounds were screened for their ability to inhibit JAK using the assay shown below. Reactions were carried out in a kinase buffer containing 100 mM HEPES (pH 7.4), 1 mM DTT, 10 mM MgCl2, 25 mM NaCl, and 0.01% BSA. […] To each well of a 96 well polycarbonate plate was added 1.5 μl of a candidate JAK3 inhibitor along with 50/1 of kinase buffer containing 2 μM poly(Glu)4Tyr and 10 μM ATP. […] After washing, 60 μl of scintillation fluid was added and ^33P incorporation detected on a Perkin Elmer TopCount.
pKi: −log10 of the molar value.
attribute_measured: pKi

Form field - read-out: pKi; system: JAK3 (Homo sapiens); submitted item: O=C(Cn1ccc2cnc(-c3ccnc4[nH]ccc34)nc21)NCC(F)(F)F
> 6.30

State its pKi on JAK3 (Homo sapiens): O=C(NCC(F)(F)F)c1ccccc1-c1ccnc2[nH]ccc12
< 5.30

Can you look up pKi on JAK3 (Homo sapiens) for CCCNC(=O)c1ccc(-c2ccnc3[nH]ccc23)cc1 ?
> 6.30

Please tell me: pKi of O=C(Cc1nc(-c2ccnc3[nH]ccc23)ncc1F)NCC(F)(F)F , system JAK3 (Homo sapiens)?
5.30 to 6.30

# value lookup — system JAK3 (Homo sapiens), readout pKi, item Oc1ccccc1-c1ccnc2[nH]ccc12
5.30 to 6.30

// fetch JAK3 (Homo sapiens) pKi for O=C(NCCC(F)(F)F)c1cccc(-c2ccnc3[nH]ccc23)c1
> 6.30

Kindly state the measured pKi obtained for CCN(Cc1ccccc1)C(=O)c1cc(-c2ccnc3[nH]ccc23)c[nH]1 with JAK3 (Homo sapiens).
> 6.30

For JAK3 (Homo sapiens), provide pKi of Cc1ccc(C(N)=O)cc1Nc1c(Cl)cnc2[nH]ccc12 please.
5.30 to 6.30

Record lookup: for JAK3 (Homo sapiens), what pKi belongs to O=C(c1csc(-c2ccnc3[nH]ccc23)n1)N1CC=CC1 ?
5.30 to 6.30

API: value(readout=pKi, system=JAK3 (Homo sapiens)) for record COC(=O)N1CCCC(Nc2c(Cl)cnc3[nH]ccc23)C1 (stereo not shown)
> 6.30

Recorded pKi for O=C(Nc1ccccc1)c1ccc(-c2ccnc3[nH]ccc23)cc1 with JAK3 (Homo sapiens), please?
> 6.30

Could you share what pKi was measured for O=C(O)c1cc(-c2ccnc3[nH]ccc23)c[nH]1 , tested on JAK3 (Homo sapiens)?
> 6.30

Return pKi measured with JAK3 (Homo sapiens) given this compound: CCN(Cc1ccccc1)C(=O)c1ccc(-c2ccnc3[nH]ccc23)s1
> 6.30

Request - read-out pKi | tested on JAK3 (Homo sapiens) | compound CCC(=O)N1CCCC(Nc2c(Cl)cnc3[nH]ccc23)C1 (stereo not shown)
> 6.30

Please state recorded pKi (tested on JAK3 (Homo sapiens)) of CCCN(CC1CC1)C(=O)c1cc(-c2ccnc3[nH]ccc23)c[nH]1
> 6.30

Form: Entry = FC(F)(F)c1ccccc1-c1ccnc2[nH]ccc12 | System = JAK3 (Homo sapiens) | pKi = ____
< 5.30
